Examples of compounds with documented residual activity follow.
- assay-system: Casein kinase II subunit alpha' (Homo sapiens) (UniProt P19784);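 further: residual kinase activity of CSNK2A2 expressed as percent of untreated control, so lower values mean stronger inhibition, with Jnk Inhibitor II at 100 µM as reference inhibitor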
- Sequence (P19784 whole entry, looked up): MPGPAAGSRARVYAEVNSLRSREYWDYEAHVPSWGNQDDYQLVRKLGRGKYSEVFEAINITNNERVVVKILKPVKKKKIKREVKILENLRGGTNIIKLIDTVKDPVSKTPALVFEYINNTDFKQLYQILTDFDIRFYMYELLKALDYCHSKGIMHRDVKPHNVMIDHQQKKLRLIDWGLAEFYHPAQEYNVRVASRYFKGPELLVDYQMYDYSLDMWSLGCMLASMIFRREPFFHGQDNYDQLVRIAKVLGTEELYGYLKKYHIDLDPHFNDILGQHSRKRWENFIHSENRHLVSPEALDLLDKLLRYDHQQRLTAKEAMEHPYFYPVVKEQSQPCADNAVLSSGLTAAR
- test-context: at 1 µM
Numbers only; they are read as %.

Worked examples follow.
O=C1NC(=O)c2c1c1c3ccccc3[nH]c1c1[nH]c3cc(Br)ccc3c21 ... 96
COc1ccc(OC)c2c(=S)c3ccccc3[nH]c12 ... 81
COc1ccc(S(=O)(=O)N(CCO)c2ccccc2CN(C)C/C=C/c2ccc(Cl)cc2)cc1 ... 106
CC#CC(=O)Nc1cc2c(Nc3ccc(F)c(Cl)c3)ncnc2cn1 ... 120
O=C1NC(=O)c2cc(Nc3ccc(F)cc3)c(Nc3ccc(F)cc3)cc21 ... 125

Data point: N#CC(C#N)=C(N)/C(C#N)=C/c1ccc(O)cc1 ; residual activity = 120

Data point: O=C1Nc2ccc(Br)cc2/C1=C\c1cc2c([nH]1)CCCC2 ; residual activity = 120

Data point: CCN(CC)CCCCN1c2ccccc2Oc2ccc(Cl)cc21 ; residual activity = 137

Data point: O=c1cc(-c2cccc3c2Sc2ccccc2S3)oc(N2CCOCC2)c1 ; residual activity = 107

Data point: Nc1ccc2ncnc(NCCc3ccc(Oc4ccccc4)cc3)c2c1 ; residual activity = 109

Data point: O=C1Nc2ccccc2/C1=C1/Nc2ccccc2/C1=N\OCCC(O)CO (stereo unspecified) ; residual activity = 46

* * *

- assay-system: Protein kinase C beta type (Homo sapiens)
- test-context: at 10 µM
Examples of molecules with documented residual activity follow.
Lab note: write values as number then unit, every time.

COc1ccc(C(=O)Nc2sc3c(c2C(N)=O)CCCC3)cc1OC ... 101%
CO[C@H]1[C@@H](OC)C[C@H](C)[C@@H](OC)C2=CC(=O)C=C(NC(=O)/C(C)=C/C=C/[C@H](OC)[C@@H](OC(N)=O)/C(C)=C/[C@@H]1C)C2=O ... 97%
c1ccc(-c2n[nH]cc2-c2ccnc3ccccc23)nc1 ... 94%

Could you now look at the following molecule, please?
Measured residual activity for this entry CC(C)n1cnc2c(NCc3ccccc3)nc(NCCCO)nc21 on Protein kinase C beta type (Homo sapiens): 104%

* * *

Examples of compounds with documented residual activity follow.
- assay-system: Tyrosine-protein kinase Fes/Fps (Homo sapiens)
- test-context: at 1 µM
Lab note: write values as number then unit, every time.

COc1cc2ncnc(N3CCN(C(=O)Nc4ccc(Oc5ccccc5)cc4)CC3)c2cc1OC ... 98%

Data point: CNc1cc2c(Nc3cccc(Br)c3)ncnc2cn1 ; residual activity = 116%

Data point: CC(C)n1cnc2/c(=N/c3cccc(Cl)c3)nc(NCCO)[nH]c21 ; residual activity = 58%

Data point: NC(=O)c1ccc2[nH]c(-c3ccc(Oc4ccc(Cl)cc4)cc3)nc2c1 ; residual activity = 97%

Data point: N#Cc1cnc2cnc(NCc3cccnc3)cc2c1Nc1ccc(F)c(Cl)c1 ; residual activity = 19%

Data point: CCOc1cc2ncnc(Nc3cccc(Br)c3)c2cc1OCC ; residual activity = 112%

* * *

Examples of compounds with documented residual activity follow.
- assay-system: Serine/threonine-protein kinase Nek11 (Homo sapiens)
- Sequence (whole entry): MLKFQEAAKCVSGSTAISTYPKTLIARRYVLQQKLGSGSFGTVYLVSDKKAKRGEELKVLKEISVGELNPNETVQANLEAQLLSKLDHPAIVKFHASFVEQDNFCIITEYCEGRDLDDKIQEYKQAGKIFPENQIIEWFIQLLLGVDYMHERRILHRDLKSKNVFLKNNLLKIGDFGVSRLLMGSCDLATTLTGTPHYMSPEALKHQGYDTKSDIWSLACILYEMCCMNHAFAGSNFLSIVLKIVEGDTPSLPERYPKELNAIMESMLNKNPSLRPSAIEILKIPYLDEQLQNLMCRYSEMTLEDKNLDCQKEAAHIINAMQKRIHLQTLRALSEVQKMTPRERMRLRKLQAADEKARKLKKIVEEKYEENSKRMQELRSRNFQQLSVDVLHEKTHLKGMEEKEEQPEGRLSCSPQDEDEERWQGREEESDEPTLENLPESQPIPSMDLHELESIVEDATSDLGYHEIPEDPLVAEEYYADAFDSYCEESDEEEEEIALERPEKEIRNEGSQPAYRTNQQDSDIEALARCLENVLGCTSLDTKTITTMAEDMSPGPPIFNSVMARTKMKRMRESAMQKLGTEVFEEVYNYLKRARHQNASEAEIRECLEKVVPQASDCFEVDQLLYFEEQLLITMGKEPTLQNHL
- test-context: at 10 µM
Numbers only; they are read as %.

CO[C@H]1C[C@@H]2CC[C@@H](C)[C@@](O)(O2)C(=O)C(=O)N2CCCC[C@H]2C(=O)O[C@H]([C@H](C)C[C@@H]2CC[C@@H](O)[C@H](OC)C2)CC(=O)[C@H](C)/C=C(\C)[C@@H](O)[C@@H](OC)C(=O)[C@H](C)C[C@H](C)/C=C/C=C/C=C/1C ... 112

Data point: COc1ccc(CNc2nc(N(CCO)CCO)nc3c2ncn3C(C)C)cc1 ; residual activity = 64

Data point: CC#CC(=O)Nc1cc2c(Nc3ccc(F)c(Cl)c3)ncnc2cn1 ; residual activity = 99

Data point: Nc1cccc(-c2cc3c(Oc4cccc(O)c4)ncnc3[nH]2)c1 ; residual activity = 25

Data point: Cc1ccc(NC2=CC(=O)c3sc(C)nc3C2=O)cc1 ; residual activity = 75

Data point: NC(=O)c1ccc2[nH]c(-c3ccc(Oc4ccc(Cl)cc4)cc3)nc2c1 ; residual activity = 33

Data point: CC[n+]1c(/C=C/N(C)c2ccccc2)n(-c2ccccc2)c2ccc(-c3nc4ccccc4s3)cc21 ; residual activity = 99

Data point: C[C@@H](N)[C@H]1CC[C@H](C(=O)Nc2ccncc2)CC1 ; residual activity = 96
